TARGET: Recombinant ROCK2 (amino acids 5-554) (Homo sapiens, UniProt O75116)
Construct: ROCK2 (amino acids 5-554)
Sequence (O75116 5-554): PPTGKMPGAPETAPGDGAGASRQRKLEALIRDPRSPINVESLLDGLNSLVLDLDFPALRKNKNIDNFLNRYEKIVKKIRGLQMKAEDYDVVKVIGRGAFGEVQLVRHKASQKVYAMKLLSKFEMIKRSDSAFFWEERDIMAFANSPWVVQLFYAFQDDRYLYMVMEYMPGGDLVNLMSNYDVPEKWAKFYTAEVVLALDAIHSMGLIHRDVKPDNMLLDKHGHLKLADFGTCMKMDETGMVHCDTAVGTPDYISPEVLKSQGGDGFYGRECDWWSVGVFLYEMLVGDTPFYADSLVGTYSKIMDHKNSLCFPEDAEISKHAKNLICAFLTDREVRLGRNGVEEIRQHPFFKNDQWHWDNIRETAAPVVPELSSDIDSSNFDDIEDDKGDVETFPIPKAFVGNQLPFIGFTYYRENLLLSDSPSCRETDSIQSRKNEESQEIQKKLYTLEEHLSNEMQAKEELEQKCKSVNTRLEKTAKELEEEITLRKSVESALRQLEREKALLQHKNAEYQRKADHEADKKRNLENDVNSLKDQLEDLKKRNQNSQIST
PROTOCOL_DETAILS: ROCK inhibition assay, LANCE Ultra TR-FRET kinase assay
Assay type: biochemical
CONDITION: at Km of ATP (table title); method: 1 mM ATP, 50 nM ULight-CREBtide substrate, 1 hour, room temperature
pIC50: −log10 of the molar value.
MEASURED_ATTRIBUTE: pIC50

Please review the entries below; each comes with its answer.
Exercise: Give the reported pIC50 for this molecule. O=C(c1cn(CCO)c2cc(-c3c[nH]nc3F)ccc12)C1COc2ccc(Cl)cc2C1 (stereo not drawn) [Compound 2-16]
Solution: > 8.00

Exercise: Give the reported pIC50 for this molecule. COc1ccc2c(c1)CC(C(=O)c1cn(CCO)c3cc(-c4c[nH]nc4Cl)ccc13)CO2 (stereo not drawn) [Compound 2-15]
Solution: > 8.00

Exercise: Give the reported pIC50 for this molecule. CC(C)(O)Cn1cc(C(=O)[C@H]2COc3ccc(Cl)cc3C2)c2cnc(-c3c[nH]nc3Cl)cc21 [Compound 1-18]
Solution: 6.30 to 7.29

Exercise: Give the reported pIC50 for this molecule. O=C(c1cn(CCO)c2cc(-c3cn[nH]c3)ccc12)C1COc2ccc(F)cc2C1 (stereo not drawn) [Compound 2-7]
Solution: > 8.00

Exercise: Give the reported pIC50 for this molecule. CC(O)Cn1cc(C(=O)C2COc3ccc(F)cc3C2)c2cnc(-c3c[nH]nc3Cl)cc21 (stereo not drawn) [Compound 1-14]
Solution: > 8.00

Exercise: Give the reported pIC50 for this molecule. COc1ccc2c(c1)OCC(C(=O)c1cn(CCO)c3cc(-c4cn[nH]c4)ccc13)C2 (stereo not drawn) [Compound 2-8]
Solution: 6.30 to 7.29

Exercise: Give the reported pIC50 for this molecule. CC[C@H](O)Cn1cc(C(=O)C2COc3ccc(Cl)cc3C2)c2cnc(-c3cn[nH]c3Cl)cc21 (stereo partly drawn) [Compound 1-35]
Solution: 7.30 to 7.96

Exercise: Give the reported pIC50 for this molecule. CC(O)Cn1cc(C(=O)C2COc3ccc(Cl)cc3C2)c2ccc(-c3c[nH]nc3Cl)cc21 (stereo not drawn) [Compound 1-39]
Solution: 7.30 to 7.96

Further cases:
Exercise: Give the reported pIC50 for this molecule. CC(C)(O)Cn1cc(C(=O)[C@@H]2COc3ccc(Cl)cc3C2)c2cnc(-c3cn[nH]c3F)nc21 [Compound 1-55]
Solution: > 8.00

Exercise: Give the reported pIC50 for this molecule. CC(O)Cn1cc(C(=O)C2COc3ccc(Cl)cc3C2)c2cnc(-c3c[nH]nc3Cl)cc21 (stereo not drawn) [Compound 1-6]
Solution: > 8.00

Exercise: Give the reported pIC50 for this molecule. CC(C)c1n[nH]cc1-c1ccc2c(C(=O)C3COc4ccc(F)cc4C3)nn(CCO)c2c1 (stereo not drawn) [Compound 2-28]
Solution: < 6.30

Exercise: Give the reported pIC50 for this molecule. COc1n[nH]cc1-c1ccc2c(C(=O)[C@H]3COc4ccc(F)cc4C3)cn(CCO)c2c1 (single isomer, unassigned) [Compound 2-22]
Solution: 6.30 to 7.29

Exercise: Give the reported pIC50 for this molecule. COc1ccc2c(c1)CC(C(=O)c1cn(CCO)c3cc(-c4c[nH]nc4Cl)ncc13)CO2 (stereo not drawn) [Compound 1-23]
Solution: > 8.00
